Tested on: type II airway epithelial cell line, A549
Assay: Proliferation of A549 cells in response to 5% FCS
Assay type: cell-based, human
Conditions: Homo sapiens, A549; proliferation in response to 5% FCS; pIC50 of 4.00 = inactive; read-out: A549 PIC50 (converted)
Returns: string. Value is Fulfilled if measured IC50 is below 10 µM, and Not fulfilled if it is greater than or equal to it.

Take a look at these entries with their results.
compound_structure=COc1cc2c(cc1O)CC[C@@H]1[C@@H]2CC[C@]2(C)/C(=N/OCc3ccc([N+](=O)[O-])cc3)CC[C@@H]12 assigned_label="Not fulfilled"
compound_structure=C[C@]12CC[C@@H]3c4ccc(O)cc4CC[C@H]3[C@@H]1CC/C2=N\OCc1cccc([N+](=O)[O-])c1 assigned_label="Not fulfilled"
compound_structure=COc1ccc(CO/N=C2\C[C@@H]3[C@H](CC[C@]4(C)[C@@H](O)CC[C@@H]34)c3cc(OC)c(O)cc32)cc1 assigned_label=Fulfilled

Data request: # check: IC50 < 10 µM for COc1cc2c(cc1O)/C(=N/OCc1ccc(SC(F)(F)F)cc1)C[C@@H]1[C@@H]2CC[C@]2(C)[C@@H](O)CC[C@@H]12
Data returned: Fulfilled
